molecular target: Urokinase-type plasminogen activator (Homo sapiens); experiment: Non-competitive inhibition of human uPA using pyroGlu-Gly-Arg-p-NA.HCl as substrate preincubated for 15 mins prior substrate addition measured for 10 mins by spectrophotometry
RECORDED_ENDPOINT: IC50 (nM)

[1] NC(=O)c1ccc2cc(C(=O)Nc3ccc(-c4cccc(C(F)(F)F)c4)cc3)ccc2c1
[2] NC(=O)c1ccc2cc(C(=O)Nc3ccccc3)ccc2c1
Kindly identify the item with the lower IC50 figure among these two: 1 and 2 Kindly give the label for the entry you pick. 1

* * *

target: UniProt P00749; assay: Inhibition of human uPA using pyroGlu-Gly-Arg-p-NA.HCl as substrate preincubated for 15 mins prior substrate addition measured for 10 mins by spectrophotometry
RECORDED_ENDPOINT: IC50 (µM)

[I] COc1cc(NC(=O)c2ccc3cc(C(=N)N)ccc3c2)cc(OC)c1
[II] COc1ccc2cc(C(=O)Nc3ccc(-c4ccc(OC)c(OC)c4)cc3)ccc2c1
Field: entry with larger IC50 (options I / II ). Kindly give the label for the entry you pick. II
